Biological target: T1, human ENTPD2 expressed on cells (human, UniProt Q9Y5L3 1-495)
T1 construct: full-length human ENTPD2 on engineered cells; also called NIH3T3 humanENTPD2; NIH/3T3-hENTPD2
T1 sequence: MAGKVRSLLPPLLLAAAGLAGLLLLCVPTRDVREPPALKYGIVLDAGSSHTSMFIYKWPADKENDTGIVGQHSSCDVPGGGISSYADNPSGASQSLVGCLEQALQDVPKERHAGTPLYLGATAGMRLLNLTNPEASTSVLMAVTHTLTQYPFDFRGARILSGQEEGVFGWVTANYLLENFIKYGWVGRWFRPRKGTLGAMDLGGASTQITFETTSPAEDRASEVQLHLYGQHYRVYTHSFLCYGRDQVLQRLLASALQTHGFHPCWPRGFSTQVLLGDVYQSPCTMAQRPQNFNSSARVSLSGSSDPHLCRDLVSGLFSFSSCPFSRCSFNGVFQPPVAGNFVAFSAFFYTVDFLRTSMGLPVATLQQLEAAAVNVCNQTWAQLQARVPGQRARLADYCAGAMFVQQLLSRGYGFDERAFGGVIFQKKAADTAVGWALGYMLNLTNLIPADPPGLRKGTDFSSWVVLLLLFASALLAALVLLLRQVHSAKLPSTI
Assay: flow cytometry, RKO cells (endogenous ENTPD2)
READOUT_LABEL: pEC50
As a rule, pEC50 stands for the negative log10 of the concentration, concentration in M.

BINDER: ANTI-HUMAN ENTPD2 MAB9 (antibody, human IgG1, lambda, V domains shown, also called Anti-ENTPD2 mAb9) VH: QVQLVQSGAEVKKPGSSVKVSCKASGGTFDSYAVSWVRQAPGQGLEWMGRIVPWLGHTQYAQKFQGRVTITADESTSTAYMELSSLRSEDTAVYYCARESPGYRYSFDVWDQGTLVTVSS VL: SYELTQPLSVSVALGQTARITCSGDAIGEKYVYWYQQKPGQAPVLVIYDDNNRPSGIPERFSGSNSGNTATLTISRAQAGDEADYYCASYDLQQARWVFGGGTKLTVLG
pEC50: 9.30
--
BINDER: ANTI-HUMAN ENTPD2 MAB3 (antibody, human IgG1, kappa, V domains shown, humanized from mAb17; human IgG1, kappa; also called Anti-ENTPD2 mAb3) VH: QVQLVQSGAEVVKPGASVKISCKASGYTFTDYNMDWVKQAPGQRLEWIGDINPKYDISTYNQQFKGKATITVDTSASTAYMELSSLRSEDTAVYYCARRGFFLYYGINYYYFDVWGQGTLVTVSS VL: EIVLTQSPATLSASPGERITLSCSASSSVSYIHWYQQKPGQAPRLLIYSTSNLASGIPARFSGSGSGTFYTLTISSVEPEDAAVYYCHQWSSYPWTFGGGTKLEIKR
pEC50: 8.68
--
BINDER: ANTI-HUMAN ENTPD2 MAB6 (antibody, human IgG1, kappa, V domains shown, humanized and optimized from mAb16; human IgG1, kappa; also called Anti-ENTPD2 mAb6) VH: QVQLQESGPGLVKPSQTLSLTCTVSGYSITSGYYWNWIRQHPGKGLEWMGYISYDADNNYNPSLKNRITISRDTSKNQFSLKLSSVTAADTAVYYCAGGYYRYGLGSYSGSYYYVMDYWGQGTTVTVSS VL: DTQMTQSPSSLSVSVGDRATITCKASQSVDYEGHSYMNWYQQKPGKAPKLLIYAASNLESGVPSRFSGSGSGTDFTLTISSVQPEDFATYYCQQSNEDPPTFGGGTKLEIKR
pEC50: 9.40
--
BINDER: ANTI-HUMAN ENTPD2 MAB4 (antibody, human IgG1, kappa, V domains shown, humanized and optimized from mAb16; human IgG1, kappa; also called Anti-ENTPD2 mAb4) VH: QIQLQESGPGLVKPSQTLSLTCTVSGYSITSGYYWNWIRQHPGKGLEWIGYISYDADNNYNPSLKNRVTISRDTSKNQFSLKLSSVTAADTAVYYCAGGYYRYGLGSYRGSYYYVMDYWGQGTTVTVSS VL: ETVLTQSPATLSVSPGERATISCKASQSVDYEGHSYMNWYQQKPGQAPRLLIYAASNLESGIPARFSGSGSGTDFTLTISSVEPEDAATYYCQQSNEDPPTFGGGTKLEIKR
pEC50: 9.30

Task: // lookup pEC50 for ANTI-HUMAN ENTPD2 MAB5 (antibody, human IgG1, kappa, V domains shown, humanized and optimized from mAb16; human IgG1, kappa; also called Anti-ENTPD2 mAb5) VH: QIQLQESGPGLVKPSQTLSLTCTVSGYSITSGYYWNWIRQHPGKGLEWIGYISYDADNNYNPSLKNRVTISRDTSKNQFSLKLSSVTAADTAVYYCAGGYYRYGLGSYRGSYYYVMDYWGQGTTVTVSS VL: ETVLTQSPATLSVSPGERATISCKASQSVDYDGNSYMNWYQQKPGQAPRLLIYAASNLESGIPARFSGSGSGTDFTLTISSVEPEDAATYYCQQSNEDPPTFGGGTKLEIKR
Result: 9.40

Task: Entry to check: ANTI-HUMAN ENTPD2 MAB8 (antibody, human IgG1, lambda, V domains shown, also called Anti-ENTPD2 mAb8) VH: QVQLQQSGPGLVKPSQTLSLTCAISGDSVSSSSAAWNWIRQSPSRGLEWLGRIYYRSKWYNDYAVSVKSRITINPDTSKNQFSLQLNSVTPEDTAVYYCARGSYVTSSYEGFDYWGQGTLVTVSS VL: SYELTQPLSVSVALGQTARITCSGDNLPEKYAYWYQQKPGQAPVLVIYDDNKRPSGIPERFSGSNSGNTATLTISRAQAGDEADYYCQSYGKWGWTWVFGGGTKLTVLG
Result: 9.52
